Values compiled from ChEMBL document CHEMBL5370592.

# Test system: Mycobacterium tuberculosis
# method-summary: Antitubercular activity against Mycobacterium tuberculosis H37Rv ATCC 27294 assessed as inhibition of bacterial growth cultured in Middlebrook 7H9/glucose/casitone/tyloxapol medium for 2 weeks
# Format: functional
# condition-info: H37Rv ATCC 27294, 336 h
Label 1.0 when MIC is strictly below 5 µM; at or above that, label 0.0.

Query :: Here's an entry: Cc1nnc(N2CCC(C(=O)N3CCC(Cc4ccccc4)CC3)CC2)o1 . Is its MIC below 5 µM?
Result :: 0.0

Query :: Further, for CC(c1ccccc1)C1CCN(C(=O)C2CCN(c3nnc(-c4ccccc4)o3)CC2)CC1 (stereo not given) ?
Result :: 1.0

Query :: Further, for O=S(=O)(C1CCN(c2nnc(-c3ccccc3)o2)CC1)N1CCC(Cc2ccccc2)CC1 ?
Result :: 0.0

Query :: Further, for O=C(C1CCN(c2nnc(-c3ccccc3)o2)CC1)N1CCC(C(F)(F)F)CC1 ?
Result :: 1.0

Query :: Further, for O=C(C1CCCN(c2nnc(-c3ccccc3)o2)C1)N1CCC(Cc2ccccc2)CC1 (stereo not given) ?
Result :: 0.0

Query :: Further, for O=C(c1ccccc1)C1CCN(C(=O)C2CCN(c3nnc(-c4ccccc4)o3)CC2)CC1 ?
Result :: 1.0

Query :: Further, for O=C(C1CCN(c2nnc(-c3ccccc3)o2)CC1)N1CCN(Cc2ccccc2)CC1 ?
Result :: 0.0

Query :: Further, for O=C(C1CCN(c2nnc(-c3ccccc3)o2)CC1)N1CCCCC1 ?
Result :: 0.0

Query :: Further, for CC(C)C1CCN(C(=O)C2CCN(c3nnc(-c4ccccc4)o3)CC2)CC1 ?
Result :: 1.0

Query :: Further, for O=C(C1CCN(c2nnc(-c3ccccc3)o2)CC1)N1CCC(Cc2ccc(C(F)(F)F)cc2)CC1 ?
Result :: 1.0

Query :: Further, for O=C(C1CCN(c2nnc(-c3ccccc3)o2)CC1)N1CCC(CC2CCCCC2)CC1 ?
Result :: 1.0

Query :: Further, for O=C(C1CCN(c2nnc(-c3ccccc3)o2)C1)N1CCC(Cc2ccccc2)CC1 (stereo not given) ?
Result :: 0.0

Query :: Further, for CCN(CC)C(=O)C1CCN(c2nnc(-c3ccccc3)o2)CC1 ?
Result :: 0.0

Query :: Further, for O=C(C1CCN(c2noc(-c3ccccc3)n2)CC1)N1CCC(Cc2ccccc2)CC1 ?
Result :: 1.0

Query :: Further, for O=C(C1CCN(c2nnc(-c3ccccc3)o2)CC1)N1CCc2ccccc2C1 ?
Result :: 0.0

Query :: Further, for O=C(C1CCN(c2nnc(-c3ccccc3)o2)CC1)N1CCC(Cc2ccccc2)CC1 ?
Result :: 1.0

Query :: Further, for O=C(C1CCN(c2nnc(-c3ccccc3)o2)CC1)N1CCCC(Cc2ccccc2)C1 (stereo not given) ?
Result :: 0.0

Query :: Further, for CN1CCN(C(=O)C2CCN(c3nnc(-c4ccccc4)o3)CC2)CC1 ?
Result :: 0.0

Query :: Further, for O=C(C1CCN(c2nnc(-c3ccc(C(F)(F)F)cc3)o2)CC1)N1CCC(Cc2ccccc2)CC1 ?
Result :: 0.0

Query :: Further, for O=C(NCc1ccccc1)C1CCN(c2nnc(-c3ccccc3)o2)CC1 ?
Result :: 0.0

====

# method-summary: Cytotoxicity against human HepG2 cells assessed as reduction in cell viability incubated for 24 hrs in DMEM/10% FBS supplemented with glucose by CellTiter-Glo luminescent assay
# Format: toxicity, cell-based
I'd appreciate it if you could supply IC50 at 24 h values for the items below.

Query :: Recorded IC50 at 24 h of CCN(CC)C(=O)C1CCN(c2nnc(-c3ccccc3)o2)CC1 , please.
Result :: > 50 µM

Query :: Further, for O=C(c1ccccc1)C1CCN(C(=O)C2CCN(c3nnc(-c4ccccc4)o3)CC2)CC1 ?
Result :: > 50 µM

Query :: Further, for O=C(C1CCN(c2nnc(-c3ccccc3)s2)CC1)N1CCC(Cc2ccccc2)CC1 ?
Result :: > 50 µM

Query :: Further, for O=C(C1CCN(c2nnc(-c3ccccc3)o2)CC1)N1CCC(Cc2ccccc2)CC1 ?
Result :: > 50 µM

Query :: Further, for CCCCCC[C@H]1C(=O)O[C@H](C)[C@H](NC(=O)c2cccc(NC=O)c2O)C(=O)O[C@@H](C)[C@@H]1OC(=O)CC(C)C [ANTIMYCIN A] ?
Result :: > 250 µM

Query :: Further, for CC(C)C1CCN(C(=O)C2CCN(c3nnc(-c4ccccc4)o3)CC2)CC1 ?
Result :: > 50 µM

Query :: Further, for O=S(=O)(C1CCN(c2nnc(-c3ccccc3)o2)CC1)N1CCC(Cc2ccccc2)CC1 ?
Result :: > 50 µM

Query :: Further, for O=C(C1CCN(c2nnc(-c3ccccc3)o2)CC1)N1CCCC(Cc2ccccc2)C1 (centres undefined) ?
Result :: > 50 µM

Query :: Further, for O=C(C1CCN(c2nnc(-c3ccccc3)o2)CC1)N1CCC(CC2CCCCC2)CC1 ?
Result :: > 50 µM
